- target.system: FPR1 (Homo sapiens)
- Sequence (P21462 whole entry, species assumed): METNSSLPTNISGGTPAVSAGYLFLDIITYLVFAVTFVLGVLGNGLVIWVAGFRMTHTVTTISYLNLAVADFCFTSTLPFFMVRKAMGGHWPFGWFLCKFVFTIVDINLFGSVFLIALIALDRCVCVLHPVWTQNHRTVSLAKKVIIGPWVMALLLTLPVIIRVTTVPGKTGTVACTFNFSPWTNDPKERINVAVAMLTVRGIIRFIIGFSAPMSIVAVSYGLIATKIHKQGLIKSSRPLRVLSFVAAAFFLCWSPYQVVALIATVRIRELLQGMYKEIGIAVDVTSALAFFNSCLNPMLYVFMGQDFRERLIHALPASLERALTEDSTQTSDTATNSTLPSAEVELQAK
- assay.method.text: Change in calcium activity by peptide, FPR1 activation effect
- Format: cell-based
- assay.context: calcium activity (Fura-2), graded per Table 3, read-out: EC50 for [Ca^2+] FPR1
Peptide text beside a SMILES is read from it.

compound	EC50
CC[C@H](C)[C@H](N)C(=O)N[C@@H](CCCCN)C(=O)N[C@@H](Cc1ccccc1)C(=O)N[C@@H](CCCCN)C(=O)N1CCC[C@H]1C(=O)N[C@H](CCSC)C(N)=O [Peptide 133] (HELM PEPTIDE1{I.K.F.K.P.[dM].[am]}$$$$V2.0)	> 10 µM
CCCCCCCC(=O)N1CCC[C@H]1C(=O)N[C@@H](CCSC)C(=O)N[C@@H](CCCNC(=N)N)C(=O)N[C@@H](Cc1ccc(O)cc1)C(=O)N[C@@H](CCCCN)C(=O)N1CCC[C@H]1C(=O)N[C@H](CCSC)C(N)=O [Peptide 65] (HELM PEPTIDE1{[CCCCCCCC(=O)[*:2]].P.M.R.Y.K.P.[dM].[am]}$$$$V2.0)	> 10 µM
CCCCCCCC(=O)N[C@@H](CCSC)C(=O)N[C@@H](CCCNC(=N)N)C(=O)N[C@@H](Cc1ccc(O)cc1)C(=O)N[C@@H](Cc1c[nH]c2ccccc12)C(=O)N[C@@H](Cc1ccc(O)cc1)C(=O)N[C@H](CCSC)C(N)=O [Peptide 88] (HELM PEPTIDE1{[CCCCCCCC(=O)[*:2]].M.R.Y.W.Y.[dM].[am]}$$$$V2.0)	> 10 µM
CCCC(=O)N[C@@H](Cc1c[nH]cn1)C(=O)N[C@@H](CCSC)C(=O)N[C@@H](CCCCN)C(=O)N[C@@H](Cc1ccc(O)cc1)C(=O)N[C@@H](CCCCN)C(=O)N[C@H](C(=O)N[C@H](CCSC)C(N)=O)C(C)C [Peptide 23] (HELM PEPTIDE1{[CCCC(=O)[*:2]].H.M.K.Y.K.V.[dM].[am]}$$$$V2.0)	> 10 µM
CCCC(=O)N[C@@H](CCCNC(=N)N)C(=O)N[C@@H](Cc1c[nH]c2ccccc12)C(=O)N[C@@H](CCCNC(=N)N)C(=O)N[C@@H](Cc1ccc(O)cc1)C(=O)N[C@@H](CCCCN)C(=O)N1CCC[C@H]1C(=O)N[C@H](CCSC)C(N)=O [Peptide 75] (HELM PEPTIDE1{[CCCC(=O)[*:2]].R.W.R.Y.K.P.[dM].[am]}$$$$V2.0)	1 to 10 µM
CCCCCCCC(=O)N[C@@H](Cc1c[nH]cn1)C(=O)N[C@@H](CCSC)C(=O)N[C@@H](CCCNC(=N)N)C(=O)N[C@@H](Cc1ccc(O)cc1)C(=O)N[C@@H](CCCCN)C(=O)N1CCC[C@H]1C(=O)N[C@H](CCSC)C(N)=O [Peptide 61] (HELM PEPTIDE1{[CCCCCCCC(=O)[*:2]].H.M.R.Y.K.P.[dM].[am]}$$$$V2.0)	> 10 µM
CSCC[C@@H](NC(=O)[C@@H]1CCCN1C(=O)[C@H](CCCCN)NC(=O)[C@H](Cc1ccc(O)cc1)NC(=O)[C@H](CCCNC(=N)N)NC(=O)[C@H](Cc1c[nH]c2ccccc12)NC(=O)[C@@H](N)CCCNC(=N)N)C(N)=O [Peptide 74] (HELM PEPTIDE1{R.W.R.Y.K.P.[dM].[am]}$$$$V2.0)	> 10 µM
CCCC(=O)N[C@@H](Cc1c[nH]cn1)C(=O)N[C@@H](Cc1c[nH]c2ccccc12)C(=O)N[C@@H](CCCCN)C(=O)N[C@@H](Cc1ccc(O)cc1)C(=O)N[C@@H](CCCCN)C(=O)N[C@@H](Cc1ccc(O)cc1)C(=O)N[C@H](CCSC)C(N)=O [Peptide 37] (HELM PEPTIDE1{[CCCC(=O)[*:2]].H.W.K.Y.K.Y.[dM].[am]}$$$$V2.0)	> 10 µM
CCCC(=O)N[C@@H](CCCCN)C(=O)N[C@@H](CCSC)C(=O)N[C@@H](CCCCN)C(=O)N[C@@H](Cc1ccc(O)cc1)C(=O)N[C@@H](CCCCN)C(=O)N1CCC[C@H]1C(=O)N[C@H](CCSC)C(N)=O [Peptide 68] (HELM PEPTIDE1{[CCCC(=O)[*:2]].K.M.K.Y.K.P.[dM].[am]}$$$$V2.0)	> 10 µM
CSCC[C@@H](NC(=O)[C@@H]1CCCN1C(=O)[C@H](Cc1c[nH]c2ccccc12)NC(=O)[C@H](Cc1ccc(O)cc1)NC(=O)[C@H](CCCNC(=N)N)NC(=O)[C@@H](N)Cc1c[nH]c2ccccc12)C(N)=O [Peptide 118] (HELM PEPTIDE1{W.R.Y.W.P.[dM].[am]}$$$$V2.0)	0.101 to 1 µM
CCCC(=O)N[C@@H](Cc1c[nH]cn1)C(=O)N[C@@H](CCSC)C(=O)N[C@@H](CCCNC(=N)N)C(=O)N[C@@H](Cc1ccc(O)cc1)C(=O)N[C@@H](CCCCN)C(=O)N[C@@H](Cc1ccc(O)cc1)C(=O)N[C@H](CCSC)C(N)=O [Peptide 45] (HELM PEPTIDE1{[CCCC(=O)[*:2]].H.M.R.Y.K.Y.[dM].[am]}$$$$V2.0)	> 10 µM
CSCC[C@@H](NC(=O)[C@@H](NC(=O)[C@H](CCCCN)NC(=O)[C@H](Cc1ccc(O)cc1)NC(=O)[C@H](CCCCN)NC(=O)[C@@H]1CCCN1C(C)=O)C(C)C)C(N)=O [Peptide 139] (HELM PEPTIDE1{[ac].P.K.Y.K.V.[dM].[am]}$$$$V2.0)	> 10 µM
CSCC[C@H](NC(=O)[C@@H](N)CCCNC(=N)N)C(=O)N[C@@H](CCCNC(=N)N)C(=O)N[C@@H](Cc1ccc(O)cc1)C(=O)N[C@@H](Cc1ccc(O)cc1)C(=O)N[C@H](C(=O)N[C@H](CCSC)C(N)=O)C(C)C [Peptide 97] (HELM PEPTIDE1{R.M.R.Y.Y.V.[dM].[am]}$$$$V2.0)	1 to 10 µM
